ASSAY OVERVIEW: Stability of the analytes in rat plasma (QC samples)
Format: in vitro ADME
STATED CONDITIONS: middle QC level, deviation from nominal conc
MEASUREMENT LABEL: RE, Three freeze-thaw cycles (%)

Worked cases, answers included:
Find the recorded RE, Three freeze-thaw cycles belonging to C[C@@H]1O[C@@H](O[C@H]2[C@H](Oc3cc(O)c4c(c3)O[C@H](c3ccc(O)cc3)CC4=O)O[C@H](CO)[C@@H](O)[C@@H]2O)[C@H](O)[C@H](O)[C@H]1O and report it. 4.34

Item COc1ccc2ccc(=O)oc2c1CC(O)C(C)(C)O (stereo not shown) [Meranzin hydrate] has what recorded RE, Three freeze-thaw cycles? -13.99

Entry COc1ccc(-c2cc(=O)c3c(OC)c(OC)c(OC)c(OC)c3o2)cc1OC : reported RE, Three freeze-thaw cycles = ? -7.62

Look up RE, Three freeze-thaw cycles for this compound: COc1ccc([C@@H]2CC(=O)c3c(O)cc(O[C@@H]4O[C@H](CO[C@@H]5O[C@@H](C)[C@H](O)[C@@H](O)[C@H]5O)[C@@H](O)[C@H](O)[C@H]4O)cc3O2)cc1O 5.80

Look up RE, Three freeze-thaw cycles for this compound: O=C1C[C@@H](c2ccc(O)cc2)Oc2cc(O)cc(O)c21 -4.45

1 = C[C@@H]1O[C@@H](OC[C@H]2O[C@@H](Oc3cc(O)c4c(c3)O[C@H](c3ccc(O)cc3)CC4=O)[C@H](O)[C@@H](O)[C@@H]2O)[C@H](O)[C@H](O)[C@H]1O
2 = COc1ccc([C@@H]2CC(=O)c3c(O)cc(O[C@@H]4O[C@H](CO)[C@@H](O)[C@H](O)[C@H]4O[C@@H]4O[C@@H](C)[C@H](O)[C@@H](O)[C@H]4O)cc3O2)cc1O
Among 1 and 2 , which shows a numerically higher RE, Three freeze-thaw cycles result? Record your answer as the label of the chosen record. 1

----------
ASSAY OVERVIEW: Stability of the analytes in rat plasma (QC samples)
Format: in vitro ADME
STATED CONDITIONS: low QC level, deviation from nominal conc
Protocol: The stabilities of the 7 analytes in rat plasma was evaluated by assaying six replicates of QC samples at low, middle, and high concentrations in practical experimental conditions: samples post-preparation stored in auto-sampler condition for 12 h, and storage at -80°C for 1 month. The freeze- thaw stability was determined after the experience of three freeze-thaw cycles (from -80°C to room temperature). […]
MEASUREMENT LABEL: RE, Room temperature for 12 h (%)

I = COc1ccc([C@@H]2CC(=O)c3c(O)cc(O[C@@H]4O[C@H](CO)[C@@H](O)[C@H](O)[C@H]4O[C@@H]4O[C@@H](C)[C@H](O)[C@@H](O)[C@H]4O)cc3O2)cc1O [Neohesperidin, neohesperidin]
II = COc1ccc([C@@H]2CC(=O)c3c(O)cc(O[C@@H]4O[C@H](CO[C@@H]5O[C@@H](C)[C@H](O)[C@@H](O)[C@H]5O)[C@@H](O)[C@H](O)[C@H]4O)cc3O2)cc1O [Hesperidin, hesperidin]
Among I and II , which shows a numerically higher RE, Room temperature for 12 h result? Write down the label attached to your selection. II

----------
ASSAY OVERVIEW: Pharmacokinetic study in plasma of acute depressive rats after oral ZQ extract (LC-MS/MS)
Assay type: in vivo, Sprague–Dawley rats
STATED CONDITIONS: Sprague-Dawley, rat; plasma, male SD rats subjected to FST, oral ZQ extract 20 g/kg, mean ± SD, n = 6
MEASUREMENT LABEL: Cmax (ng/mL)

Fill in the blank: the reported Cmax of C[C@@H]1O[C@@H](O[C@H]2[C@H](Oc3cc(O)c4c(c3)O[C@H](c3ccc(O)cc3)CC4=O)O[C@H](CO)[C@@H](O)[C@@H]2O)[C@H](O)[C@H](O)[C@H]1O [Naringin, naringin] is ____. 104

I = O=C1C[C@@H](c2ccc(O)cc2)Oc2cc(O)cc(O)c21 [Naringenin, naringenin]
II = COc1ccc([C@@H]2CC(=O)c3c(O)cc(O[C@@H]4O[C@H](CO[C@@H]5O[C@@H](C)[C@H](O)[C@@H](O)[C@H]5O)[C@@H](O)[C@H](O)[C@H]4O)cc3O2)cc1O [Hesperidin, hesperidin]
III = C[C@@H]1O[C@@H](OC[C@H]2O[C@@H](Oc3cc(O)c4c(c3)O[C@H](c3ccc(O)cc3)CC4=O)[C@H](O)[C@@H](O)[C@@H]2O)[C@H](O)[C@H](O)[C@H]1O [Narirutin, narirutin]
Output the entries ranked by Cmax from maximum down to minimum. Submit the labels in the order that the ranking request calls for. I, II, III
(I: 78.1 ng/mL, II: 46 ng/mL, III: 31.1 ng/mL)

a = COc1ccc2ccc(=O)oc2c1CC(O)C(C)(C)O (stereo not shown) [Meranzin hydrate]
b = COc1ccc([C@@H]2CC(=O)c3c(O)cc(O[C@@H]4O[C@H](CO)[C@@H](O)[C@H](O)[C@H]4O[C@@H]4O[C@@H](C)[C@H](O)[C@@H](O)[C@H]4O)cc3O2)cc1O [Neohesperidin, neohesperidin]
c = COc1ccc(-c2cc(=O)c3c(OC)c(OC)c(OC)c(OC)c3o2)cc1OC [Nobiletin, nobiletin]
Please list these in order of increasing Cmax. Thank you! # respond with the labels, arranged in the requested order c, b, a
(c: 53.9 ng/mL, b: 90.8 ng/mL, a: 222 ng/mL)

----------
ASSAY OVERVIEW: Stability of the analytes in rat plasma (QC samples)
Format: in vitro ADME
STATED CONDITIONS: middle QC level, deviation from nominal conc
MEASUREMENT LABEL: RE, -80°C for 1 month (%)

Any idea what its RE, -80°C for 1 month is? The molecule is COc1ccc([C@@H]2CC(=O)c3c(O)cc(O[C@@H]4O[C@H](CO[C@@H]5O[C@@H](C)[C@H](O)[C@@H](O)[C@H]5O)[C@@H](O)[C@H](O)[C@H]4O)cc3O2)cc1O [Hesperidin, hesperidin] 4.15

A = COc1ccc([C@@H]2CC(=O)c3c(O)cc(O[C@@H]4O[C@H](CO)[C@@H](O)[C@H](O)[C@H]4O[C@@H]4O[C@@H](C)[C@H](O)[C@@H](O)[C@H]4O)cc3O2)cc1O [Neohesperidin, neohesperidin]
B = O=C1C[C@@H](c2ccc(O)cc2)Oc2cc(O)cc(O)c21 [Naringenin, naringenin]
C = C[C@@H]1O[C@@H](O[C@H]2[C@H](Oc3cc(O)c4c(c3)O[C@H](c3ccc(O)cc3)CC4=O)O[C@H](CO)[C@@H](O)[C@@H]2O)[C@H](O)[C@H](O)[C@H]1O [Naringin, naringin]
Reorder: RE, -80°C for 1 month, max to min. Answer by writing out the labels in the requested order. A, C, B
(A: 3.13%, C: 0.21%, B: -6.00%)

1 = C[C@@H]1O[C@@H](OC[C@H]2O[C@@H](Oc3cc(O)c4c(c3)O[C@H](c3ccc(O)cc3)CC4=O)[C@H](O)[C@@H](O)[C@@H]2O)[C@H](O)[C@H](O)[C@H]1O [Narirutin, narirutin]
2 = COc1ccc(-c2cc(=O)c3c(OC)c(OC)c(OC)c(OC)c3o2)cc1OC [Nobiletin, nobiletin]
Look at 1 and 2 . Which one has the lower recorded RE, -80°C for 1 month number? Record your answer as the label of the chosen record. 2

----------
ASSAY OVERVIEW: Stability of the analytes in rat plasma (QC samples)
Format: in vitro ADME
STATED CONDITIONS: high QC level, deviation from nominal conc
MEASUREMENT LABEL: RE, Three freeze-thaw cycles (%)

# input compound: C[C@@H]1O[C@@H](O[C@H]2[C@H](Oc3cc(O)c4c(c3)O[C@H](c3ccc(O)cc3)CC4=O)O[C@H](CO)[C@@H](O)[C@@H]2O)[C@H](O)[C@H](O)[C@H]1O ; wanted: its RE, Three freeze-thaw cycles 0.56

Item under review: COc1ccc([C@@H]2CC(=O)c3c(O)cc(O[C@@H]4O[C@H](CO[C@@H]5O[C@@H](C)[C@H](O)[C@@H](O)[C@H]5O)[C@@H](O)[C@H](O)[C@H]4O)cc3O2)cc1O . Reported RE, Three freeze-thaw cycles? -1.62

Dear colleague, I am looking for the recorded RE, Three freeze-thaw cycles of the following compound: COc1ccc2ccc(=O)oc2c1CC(O)C(C)(C)O (stereo not shown) [Meranzin hydrate] 3.48

# query: RE, Three freeze-thaw cycles of entry COc1ccc([C@@H]2CC(=O)c3c(O)cc(O[C@@H]4O[C@H](CO)[C@@H](O)[C@H](O)[C@H]4O[C@@H]4O[C@@H](C)[C@H](O)[C@@H](O)[C@H]4O)cc3O2)cc1O -0.30

P = COc1ccc(-c2cc(=O)c3c(OC)c(OC)c(OC)c(OC)c3o2)cc1OC
Q = C[C@@H]1O[C@@H](OC[C@H]2O[C@@H](Oc3cc(O)c4c(c3)O[C@H](c3ccc(O)cc3)CC4=O)[C@H](O)[C@@H](O)[C@@H]2O)[C@H](O)[C@H](O)[C@H]1O
R = O=C1C[C@@H](c2ccc(O)cc2)Oc2cc(O)cc(O)c21
Parameters: sort_field (RE, Three freeze-thaw cycles), sort_dir (desc). Ranked list of labels, please, in the requested order. Q, R, P
(Q: 7.94%, R: -2.59%, P: -6.73%)
